- tgt: progesterone receptor (Homo sapiens)
- Construct: made in house; host or cells: Hi5 insect cells (cytosol)
- Sequence (P06401 whole entry, species assumed): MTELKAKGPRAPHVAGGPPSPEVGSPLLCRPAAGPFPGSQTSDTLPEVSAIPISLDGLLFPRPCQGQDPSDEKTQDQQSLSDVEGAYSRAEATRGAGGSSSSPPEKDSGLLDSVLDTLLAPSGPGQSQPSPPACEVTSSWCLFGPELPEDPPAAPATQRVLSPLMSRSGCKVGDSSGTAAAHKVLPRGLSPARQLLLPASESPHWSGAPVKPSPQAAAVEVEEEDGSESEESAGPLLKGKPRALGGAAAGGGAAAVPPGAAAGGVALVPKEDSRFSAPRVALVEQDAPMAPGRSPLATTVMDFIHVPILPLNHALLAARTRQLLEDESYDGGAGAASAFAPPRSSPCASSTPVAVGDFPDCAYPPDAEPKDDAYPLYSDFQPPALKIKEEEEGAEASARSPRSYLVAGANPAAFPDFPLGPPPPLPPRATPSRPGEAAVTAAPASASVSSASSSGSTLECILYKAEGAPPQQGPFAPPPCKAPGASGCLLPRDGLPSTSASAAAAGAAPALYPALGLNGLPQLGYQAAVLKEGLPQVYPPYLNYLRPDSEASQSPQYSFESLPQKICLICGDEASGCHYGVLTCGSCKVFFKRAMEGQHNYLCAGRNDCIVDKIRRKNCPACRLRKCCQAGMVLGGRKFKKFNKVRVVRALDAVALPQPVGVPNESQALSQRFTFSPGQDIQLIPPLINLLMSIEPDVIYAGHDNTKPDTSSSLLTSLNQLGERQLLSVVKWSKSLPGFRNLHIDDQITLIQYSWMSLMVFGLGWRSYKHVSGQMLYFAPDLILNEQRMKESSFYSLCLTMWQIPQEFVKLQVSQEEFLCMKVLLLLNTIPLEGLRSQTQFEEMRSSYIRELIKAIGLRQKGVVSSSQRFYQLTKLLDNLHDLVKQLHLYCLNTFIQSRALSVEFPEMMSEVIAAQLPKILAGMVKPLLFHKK
- assay_details: Progesterone receptor binding test
reported_property: pIC50
In textbook form, pIC50 equals minus log to base ten of the concentration in mol/L.

Ask: Kindly indicate its recorded pIC50. Item: CC[C@@H]1CC2=CC(=O)CC[C@@H]2[C@H]2CC[C@@]3(C)[C@@H]([C@@H]4C[C@@H]4[C@@]34C=CC(=O)O4)[C@H]12 [Example 24A]
Result: 5.89

Ask: Kindly indicate its recorded pIC50. Item: "C=C[C@@H]1CC2=CC(=O)CC[C@@H]2[C@H]2CC[C@@]3(CC)[C@@H]([C@@H]4C[C@@H]4[C@@]34C=CC(=O)O4)[C@@H]21"
Result: 6.92

Ask: Kindly indicate its recorded pIC50. Item: "CC[C@]12CC[C@H]3[C@@H](C=CC4=CC(=O)CC[C@@H]43)[C@@H]1[C@@H]1C[C@@H]1[C@@]21C=CC(=O)O1"
Result: 7.14

Ask: Kindly indicate its recorded pIC50. Item: C[C@]12CC[C@H]3[C@H]([C@@H]1[C@H]1C[C@H]1[C@@]21C=CC(=O)O1)[C@H](C1CC1)CC1=CC(=O)CC[C@@H]13 [Example 17A]
Result: 6.55

Ask: Kindly indicate its recorded pIC50. Item: "CC[C@]12CC[C@H]3[C@@H]([C@@H]4C[C@@H]4C4=CC(=O)CC[C@@H]43)[C@@H]1[C@@H]1C[C@@H]1[C@@]21C=CC(=O)O1"
Result: 6.20

Ask: Kindly indicate its recorded pIC50. Item: "CC[C@]12CC[C@H]3[C@@H]([C@H]4C[C@H]4C4=CC(=O)CC[C@@H]43)[C@@H]1[C@@H]1C[C@@H]1[C@@]21C=CC(=O)O1"
Result: 7.39

Ask: Kindly indicate its recorded pIC50. Item: C[C@@H]1CC2=CC(=O)CC[C@@H]2[C@H]2CC[C@@]3(C)[C@@H]([C@H]4C[C@H]4[C@@]34C=CC(=O)O4)[C@@H]21 [Example 14A]
Result: 7.31

Ask: Kindly indicate its recorded pIC50. Item: "CC[C@]12CC[C@H]3[C@@H](CCC4=CC(=O)CC[C@@H]43)[C@@H]1[C@@H]1C[C@@H]1[C@@]21C=CC(=O)O1"
Result: 7.11

Ask: Kindly indicate its recorded pIC50. Item: CC[C@@H]1CC2=CC(=O)CC[C@@H]2[C@H]2CC[C@@]3(C)[C@@H]([C@H]4C[C@H]4[C@@]34C=CC(=O)O4)[C@H]12 [Example 15A]
Result: 6.70

Ask: Kindly indicate its recorded pIC50. Item: "CC[C@]12CC[C@H]3[C@H]([C@@H]1[C@@H]1C[C@@H]1[C@@]21C=CC(=O)O1)[C@H](C)CC1=CC(=O)CC[C@@H]13"
Result: 7.32

Ask: Kindly indicate its recorded pIC50. Item: "C[C@]12CC[C@H]3[C@@H](CCC4=CC(=O)CC[C@@H]43)[C@@H]1[C@@H]1C[C@@H]1[C@@]21C=CC(=O)O1"
Result: 7.60
